- assay.protocol: Pharmacokinetic study in rats after intragastric administration of Farfarae Flos extract (plasma, LC-MS/MS)
- Type: in vivo
- details: male; rat plasma, oral Farfarae Flos extract 3.9 g·kg^−1, mean ± SD; read-out: MRT(0–24h)
- Protocol: A high-performance liquid chromatography instrument was used to separate three types of compounds (Agilent 1200 series, USA). The HPLC instrument is composed of four parts; a G1322A degasser, G1312A Bin Pump, G1367B auto-sampler, and G1316A thermostatic column compartment. […] Quantitative analysis of all samples was performed on Sciex API 3200 with an electrospray ionization (ESI) source. […] Ten analyzed compounds and three ISs were optimized during multiple reactions monitoring (MRM). […]
quantity.kind: MRT last (h)

{"molecule": "O=C(/C=C/c1ccc(O)c(O)c1)O[C@H]1[C@H](O)C[C@](O)(C(=O)O)C[C@H]1O", "unit.label": "h", "recorded.measurement": 4.17}
{"molecule": "O=C(/C=C/c1ccc(O)c(O)c1)O[C@@H]1C[C@](O)(C(=O)O)C[C@@H](O)[C@H]1O", "unit.label": "h", "recorded.measurement": 4.4}
{"molecule": "C[C@@H]1O[C@@H](OC[C@H]2O[C@@H](Oc3c(-c4ccc(O)c(O)c4)oc4cc(O)cc(O)c4c3=O)[C@H](O)[C@@H](O)[C@@H]2O)[C@H](O)[C@H](O)[C@H]1O", "unit.label": "h", "recorded.measurement": 1.95}
{"molecule": "C=C1[C@H](OC(=O)/C=C(\\C)CC)C[C@@H](C(C)C)[C@@H]2[C@@H]([C@@H](C)OC(C)=O)C(=O)C[C@@H]12", "unit.label": "h", "recorded.measurement": 0.87}
{"molecule": "O=C(O)/C=C/c1ccc(O)c(O)c1", "unit.label": "h", "recorded.measurement": 6.47}
{"molecule": "O=c1c(O[C@@H]2O[C@H](CO)[C@@H](O)[C@H](O)[C@H]2O)c(-c2ccc(O)c(O)c2)oc2cc(O)cc(O)c12", "unit.label": "h", "recorded.measurement": 3.16}
{"molecule": "O=C(/C=C/c1ccc(O)c(O)c1)O[C@@H]1C[C@@](O)(C(=O)O)C[C@@H](O)[C@@H]1O", "unit.label": "h", "recorded.measurement": 4.35}
{"molecule": "O=C(C=Cc1ccc(O)c(O)c1)OC1CC(O)(C(=O)O)CC(O)C1OC(=O)C=Cc1ccc(O)c(O)c1 (centres unmarked)", "unit.label": "h", "recorded.measurement": 5.79}

Origin of values: paper PMC8970883
